biological target: human αVβ6 (Homo sapiens, UniProt P06756+P18564); experiment: human αVβ6 HTRF binding assay
Sequence (P06756 31-992 limits assumed): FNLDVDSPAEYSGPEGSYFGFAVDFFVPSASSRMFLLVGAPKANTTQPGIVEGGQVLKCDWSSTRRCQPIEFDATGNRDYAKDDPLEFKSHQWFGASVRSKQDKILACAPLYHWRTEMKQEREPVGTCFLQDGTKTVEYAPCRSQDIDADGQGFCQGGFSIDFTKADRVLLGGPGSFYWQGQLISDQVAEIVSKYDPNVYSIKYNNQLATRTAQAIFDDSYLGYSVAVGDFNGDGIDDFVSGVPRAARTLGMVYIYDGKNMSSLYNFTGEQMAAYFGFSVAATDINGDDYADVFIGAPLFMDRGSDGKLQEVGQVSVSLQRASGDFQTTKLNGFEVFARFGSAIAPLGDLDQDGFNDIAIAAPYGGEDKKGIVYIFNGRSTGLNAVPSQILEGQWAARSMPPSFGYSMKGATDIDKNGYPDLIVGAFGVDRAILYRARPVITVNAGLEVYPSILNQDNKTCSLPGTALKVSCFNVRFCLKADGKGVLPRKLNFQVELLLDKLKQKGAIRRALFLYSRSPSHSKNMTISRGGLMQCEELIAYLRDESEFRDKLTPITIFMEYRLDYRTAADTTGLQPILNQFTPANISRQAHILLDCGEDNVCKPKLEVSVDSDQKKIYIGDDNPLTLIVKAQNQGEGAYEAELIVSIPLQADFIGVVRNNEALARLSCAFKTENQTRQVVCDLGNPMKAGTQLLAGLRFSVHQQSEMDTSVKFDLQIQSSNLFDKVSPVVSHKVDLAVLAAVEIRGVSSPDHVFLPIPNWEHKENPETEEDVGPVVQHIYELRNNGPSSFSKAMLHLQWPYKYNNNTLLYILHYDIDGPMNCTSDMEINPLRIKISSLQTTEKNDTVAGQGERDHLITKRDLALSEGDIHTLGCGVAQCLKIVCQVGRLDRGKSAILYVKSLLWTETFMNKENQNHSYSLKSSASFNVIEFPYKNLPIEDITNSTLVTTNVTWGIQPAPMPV
Sequence (P18564 22-707 limits assumed): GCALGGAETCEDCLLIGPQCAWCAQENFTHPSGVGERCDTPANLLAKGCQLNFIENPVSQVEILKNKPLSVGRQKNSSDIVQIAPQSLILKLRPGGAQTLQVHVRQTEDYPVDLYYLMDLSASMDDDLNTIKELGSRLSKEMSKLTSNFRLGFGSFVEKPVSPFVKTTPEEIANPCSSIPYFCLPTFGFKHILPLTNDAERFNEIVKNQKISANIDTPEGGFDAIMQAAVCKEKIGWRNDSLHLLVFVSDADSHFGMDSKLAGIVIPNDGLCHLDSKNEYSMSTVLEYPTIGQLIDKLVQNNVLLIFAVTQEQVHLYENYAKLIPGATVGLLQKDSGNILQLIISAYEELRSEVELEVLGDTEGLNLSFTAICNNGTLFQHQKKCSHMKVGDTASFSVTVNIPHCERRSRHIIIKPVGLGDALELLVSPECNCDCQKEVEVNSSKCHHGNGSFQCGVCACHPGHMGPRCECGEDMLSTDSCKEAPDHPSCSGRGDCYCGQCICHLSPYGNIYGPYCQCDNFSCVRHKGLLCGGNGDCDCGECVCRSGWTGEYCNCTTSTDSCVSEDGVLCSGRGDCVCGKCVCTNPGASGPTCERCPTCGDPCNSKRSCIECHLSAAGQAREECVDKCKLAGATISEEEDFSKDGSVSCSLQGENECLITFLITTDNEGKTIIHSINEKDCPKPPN
pIC50: −log10 of the molar value.
Observation Type: pIC50

Here is how some molecules turned out for pIC50.
* O=C(O)CC(CCc1ccccc1)NC(=O)c1cnn(CCc2ccc3c(n2)NCCC3)c1 (stereo not shown) | 6.40
* Cc1cc(C)c(S(=O)(=O)N[C@H](CNC(=O)c2cn(CCc3ccc4c(n3)NCCC4)cn2)C(=O)O)c(C)c1 | 8.70
* O=C(O)C[C@H](NC(=O)c1cnn(CCc2ccc3c(n2)NCCC3)c1)c1cc(Cl)cc(Cl)c1 | 8.38
* COc1ccc([C@H](CC(=O)O)NC(=O)c2cnn(CCc3ccc4c(n3)NCCC4)c2)cn1 | 7.68
* Cc1cc(C)c(S(=O)(=O)N[C@@H](CNC(=O)c2ccn(Cc3cc4c(nc3C)NCCC4)c2)C(=O)O)c(C)c1 | 7.37
* C=CCOC(=O)N[C@@H](CNC(=O)c1cnn(CCc2ccc3c(n2)NCCC3)c1)C(=O)O | 8.59

(I) CC(C)(C)c1cc(Br)cc([C@H](CC(=O)O)NC(=O)c2cnn(CCc3ccc4c(n3)NCCC4)c2CO)c1
(II) Cc1cc(C)n(-c2cccc(C(CC(=O)O)NC(=O)c3cnn(CCc4ccc5c(n4)NCCC5)c3COC(C)(C)C)c2)n1 (stereo not shown)
QUERY: Which has the higher pIC50, I or II ? Use the label to indicate which entry you chose.
RESULT: I
(I: 8.30, II: 7.92)
